Target: Angiotensin-converting enzyme (Oryctolagus cuniculus, UniProt P12822)
Sequence (P12822 whole entry): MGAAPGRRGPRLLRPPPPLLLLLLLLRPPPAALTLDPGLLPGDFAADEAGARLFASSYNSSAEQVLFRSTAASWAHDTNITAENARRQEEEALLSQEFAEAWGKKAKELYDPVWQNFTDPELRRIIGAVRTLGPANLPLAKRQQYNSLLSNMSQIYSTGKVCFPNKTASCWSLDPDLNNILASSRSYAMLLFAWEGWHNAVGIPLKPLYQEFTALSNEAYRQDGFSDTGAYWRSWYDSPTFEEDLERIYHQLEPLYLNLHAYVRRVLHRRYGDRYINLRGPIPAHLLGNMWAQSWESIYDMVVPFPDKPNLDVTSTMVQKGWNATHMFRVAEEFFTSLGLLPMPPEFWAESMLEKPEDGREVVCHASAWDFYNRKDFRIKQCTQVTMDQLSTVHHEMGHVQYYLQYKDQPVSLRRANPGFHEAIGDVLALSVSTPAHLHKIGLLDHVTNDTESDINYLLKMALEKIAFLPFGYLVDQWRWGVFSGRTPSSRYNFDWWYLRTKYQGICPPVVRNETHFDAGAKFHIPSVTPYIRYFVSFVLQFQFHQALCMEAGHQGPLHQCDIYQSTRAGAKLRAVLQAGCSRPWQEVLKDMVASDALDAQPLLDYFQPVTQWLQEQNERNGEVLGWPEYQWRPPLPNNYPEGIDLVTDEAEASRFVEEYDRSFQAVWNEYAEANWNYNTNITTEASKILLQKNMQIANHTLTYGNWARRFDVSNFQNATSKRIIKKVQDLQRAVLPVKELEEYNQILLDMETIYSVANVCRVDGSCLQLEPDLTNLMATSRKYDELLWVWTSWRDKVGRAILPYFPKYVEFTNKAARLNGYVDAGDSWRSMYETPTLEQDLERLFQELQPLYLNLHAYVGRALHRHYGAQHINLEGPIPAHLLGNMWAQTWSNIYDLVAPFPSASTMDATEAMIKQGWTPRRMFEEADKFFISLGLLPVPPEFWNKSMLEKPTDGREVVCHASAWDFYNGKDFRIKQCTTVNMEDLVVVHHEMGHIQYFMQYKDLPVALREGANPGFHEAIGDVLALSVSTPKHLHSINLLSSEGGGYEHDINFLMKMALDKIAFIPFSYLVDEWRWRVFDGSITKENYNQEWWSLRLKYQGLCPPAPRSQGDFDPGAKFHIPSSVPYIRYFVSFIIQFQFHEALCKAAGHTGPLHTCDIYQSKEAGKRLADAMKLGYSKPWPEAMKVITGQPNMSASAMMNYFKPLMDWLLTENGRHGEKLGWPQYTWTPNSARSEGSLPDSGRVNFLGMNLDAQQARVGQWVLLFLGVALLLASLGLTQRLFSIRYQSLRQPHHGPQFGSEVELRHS
METRIC: Ki (nM)
# output: bare number, implied unit nM

[Q] Respond only with Ki recorded for CCOP(=O)(O)N[C@H](C(=O)NC(Cc1ccc(OCc2ccccc2)cc1)C(=O)NCC(=O)O)[C@@H](C)CC (stereo partly specified)
[A] 200

----------
Data export: Ki values recorded with Collagenase ColA (Bacteria).
Sequence (P43153 whole entry): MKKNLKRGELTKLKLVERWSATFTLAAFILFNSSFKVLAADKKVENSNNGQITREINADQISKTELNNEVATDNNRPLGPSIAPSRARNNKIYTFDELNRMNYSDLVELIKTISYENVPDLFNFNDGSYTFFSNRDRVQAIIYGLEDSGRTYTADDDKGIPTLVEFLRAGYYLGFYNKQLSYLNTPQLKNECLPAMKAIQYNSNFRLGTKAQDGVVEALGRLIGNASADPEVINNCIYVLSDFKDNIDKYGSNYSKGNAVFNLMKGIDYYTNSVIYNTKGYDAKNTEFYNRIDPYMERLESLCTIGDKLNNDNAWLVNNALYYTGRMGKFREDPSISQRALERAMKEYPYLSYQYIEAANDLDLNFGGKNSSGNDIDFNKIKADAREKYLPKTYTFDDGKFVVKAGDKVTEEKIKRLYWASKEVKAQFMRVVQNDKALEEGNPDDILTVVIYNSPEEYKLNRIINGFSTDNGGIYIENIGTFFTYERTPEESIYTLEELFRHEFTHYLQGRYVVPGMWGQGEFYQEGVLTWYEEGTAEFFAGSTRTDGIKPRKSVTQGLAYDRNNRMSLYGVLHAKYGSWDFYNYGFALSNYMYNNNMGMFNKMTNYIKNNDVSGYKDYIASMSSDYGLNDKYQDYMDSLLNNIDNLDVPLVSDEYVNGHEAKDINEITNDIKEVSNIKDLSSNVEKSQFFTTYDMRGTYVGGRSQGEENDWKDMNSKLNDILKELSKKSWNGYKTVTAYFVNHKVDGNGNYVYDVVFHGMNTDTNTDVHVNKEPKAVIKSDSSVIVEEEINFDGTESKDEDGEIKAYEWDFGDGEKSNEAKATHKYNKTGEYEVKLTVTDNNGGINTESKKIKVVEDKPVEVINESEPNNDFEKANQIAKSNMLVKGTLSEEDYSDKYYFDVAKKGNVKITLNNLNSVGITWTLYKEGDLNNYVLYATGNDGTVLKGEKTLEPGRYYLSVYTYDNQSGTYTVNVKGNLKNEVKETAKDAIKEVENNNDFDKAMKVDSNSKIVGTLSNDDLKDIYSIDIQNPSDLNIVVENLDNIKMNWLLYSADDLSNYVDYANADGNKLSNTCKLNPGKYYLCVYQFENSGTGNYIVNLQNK

COMPOUND	REPORTED MEASUREMENT
CCOP(=O)(O)N[C@H](C(=O)NC(Cc1c[nH]c2ccccc12)C(=O)NC)[C@@H](C)CC (some centres not stated)	> 5000 µM

# evaluate next
[Q] State measured Ki of the compound CCOP(=O)(O)N[C@H](C(=O)NC(Cc1ccc(OCc2ccccc2)cc1)C(=O)NCC(=O)O)[C@@H](C)CC (some centres not stated) with Collagenase ColA (Bacteria).
[A] > 5 µM
